assay: Biodistribution in BALB/c mice; format: in vivo; settings: female, BALB/c, mouse, femur, iv, 30 MBq, total radioactivity; 1 h p.i.; read-out: uptake in femur
Where a SMILES comes first, the peptide text is derived from it. [ ]: non-standard residue; d: D form. The star is where a group is joined. DOTA = O=C(O)CN1CCN(CC(=O)O)CCN(CC(=O)*)CCN(CC(=O)O)CC1; 1Nal = N[C@@H](Cc1cccc2ccccc12)C(=O)O; NMeNle = CCCC[C@H](NC)C(=O)O
READOUT: tissue uptake at 1 h
Could you write the number and then its unit?

## Task Using the record for CCCC[C@@H](C(=O)N[C@@H](CC(=O)O)C(=O)N[C@@H](Cc1cccc2ccccc12)C(N)=O)N(C)C(=O)[C@H](Cc1c[nH]c2ccccc12)NC(=O)CNC(=O)[C@H](Cc1ccc(O)cc1)NC(=O)[C@@H]1CCCN1C(=O)[C@@H](CCC(=O)O)NC(=O)CN1CCN(CC(=O)O)CCN(CC(=O)O)CCN(CC(=O)O)CC1 [[^177Lu]Lu-1, metal not drawn] ({DOTA}-[dE]PYGW[NMeNle]D[1Nal]-NH2) , state its measured tissue uptake at 1 h.
## Result 0.52 %ID/g
